// provenance: paper PMC6487859

Target desc: PKN3 (Homo sapiens, UniProt Q6P5Z2)
Sequence (Q6P5Z2 whole entry): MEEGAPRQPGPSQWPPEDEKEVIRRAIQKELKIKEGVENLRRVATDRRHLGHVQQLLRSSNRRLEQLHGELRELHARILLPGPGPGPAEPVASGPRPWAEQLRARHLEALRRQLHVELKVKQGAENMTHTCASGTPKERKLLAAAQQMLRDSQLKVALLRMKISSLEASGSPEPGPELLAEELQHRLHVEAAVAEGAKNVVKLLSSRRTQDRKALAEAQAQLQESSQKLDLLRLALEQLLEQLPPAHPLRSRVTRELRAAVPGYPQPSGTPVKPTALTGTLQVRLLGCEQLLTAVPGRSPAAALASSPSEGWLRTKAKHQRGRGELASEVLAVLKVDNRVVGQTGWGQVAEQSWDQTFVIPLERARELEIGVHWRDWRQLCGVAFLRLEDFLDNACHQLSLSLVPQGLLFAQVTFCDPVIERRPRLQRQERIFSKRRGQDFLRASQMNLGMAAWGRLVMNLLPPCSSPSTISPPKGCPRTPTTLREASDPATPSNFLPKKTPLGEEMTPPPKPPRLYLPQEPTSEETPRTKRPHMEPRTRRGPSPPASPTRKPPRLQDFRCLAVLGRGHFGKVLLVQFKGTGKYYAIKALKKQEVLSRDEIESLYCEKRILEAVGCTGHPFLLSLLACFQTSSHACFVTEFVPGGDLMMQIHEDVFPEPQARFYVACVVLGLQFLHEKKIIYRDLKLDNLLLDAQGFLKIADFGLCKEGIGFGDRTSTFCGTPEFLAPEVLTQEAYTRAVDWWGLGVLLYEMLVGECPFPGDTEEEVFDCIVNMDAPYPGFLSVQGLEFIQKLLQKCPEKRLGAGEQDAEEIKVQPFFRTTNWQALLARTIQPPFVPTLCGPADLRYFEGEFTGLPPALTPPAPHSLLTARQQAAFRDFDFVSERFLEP
Measurement notes: in vitro PKN3 kinase assay
Type: biochemical
Measurement parameters: read-out: IC50 against PKN3; fixed time-point format; 30 min preincubation
pIC50: −log10 of the molar value.

Chemical smiles: CN(C)C/C=C/C(=O)Nc1ccc(C(=O)Nc2cccc(Nc3ncc(Cl)c(-c4c[nH]c5ccccc45)n3)c2)cc1
Target desc: PKN3 (Homo sapiens, UniProt Q6P5Z2)
pIC50: 7.14
